The origin of these recorded values is PubChem BioAssay (NCI).

Below, each entry is listed with its recorded growth inhibition.
assay: NCI Yeast Anticancer Drug Screen. Data for the rad50 strain (AID 155);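 further: 0% = growth of vehicle-only cultures of the same strain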; conditions: S. cerevisiae rad50 strain growth inhibition; at 50.0 µM; stronger effect = higher value
Compounds without any hit were thinned out: in the full panel of roughly 79,000, 15% have a hit.
measurement_name: growth inhibition (%)

| compound | unit_descriptor | readout_number |
| --- | --- | --- |
| Cc1cc(C)c(C2CC(O)C(CO)O2)cc1C (stereo not drawn) | % | -2 |
| CN(C)C(=O)Sc1nnc(C(C)(C)C)o1 | % | -4.35 |
| COc1ccc(C)cc1NC(=S)NC(=O)c1cccc2ccccc12 | % | -38.6 |
| O=C(COc1ccc(Cl)cc1C(=O)O)NCc1cccc2ccccc12 | % | -0.2 |
| CCC(C1=CCCCC1)c1nc2c([nH]1)c(=O)n(C)c(=O)n2C (stereo not drawn) | % | 7.95 |
| O=[N+]([O-])c1cccc2cnccc12 | % | -7.25 |
| O=C(NCc1ccccc1)C(O)c1ccccc1 (stereo not drawn) | % | 25.2 |
| CCN(CC)c1ccccc1C | % | 21.1 |
| N#Cc1cc2c(cc1C#N)SCCSCCCSCCS2 | % | 1.2 |
| COC(=O)C1OC(O[C@H]2CC[C@]3(C)[C@H]4CC=C5[C@@H]6CC(C)(C)CC[C@]6(C(=O)OC6OCC(O)C(O)C6OC6OC(C)C(OC7OCC(O)C(O)C7O)C(OC7OCC(O)(CO)C7O)C6O)[C@H](O)C[C@@]5(C)[C@]4(C)CC[C@H]3C2(C)C)C(O)C(O)C1O (stereo partly drawn) | % | 16.1 |
| COC(=O)C(CCC1(C)OCCO1)=[N+]=[N-] | % | -7.05 |
| O=C(O)C(CCc1cccc(Cl)c1)C(=O)O | % | 8.1 |
| CCc1cccc(C(C)C)c1NC(=O)C(=O)C(C(=O)C(=O)OC)c1nc2ccccc2[nH]c1=O (stereo not drawn) | % | 5.95 |
| S=C(Nc1ccccc1)Nc1nc(-c2ccccc2)c(N=Nc2ccc(Cl)cc2)s1 | % | 42.5 |
| CCC1CC(=O)NC(=O)NC1=O (stereo not drawn) | % | -4.6 |
| N#CCC(=O)N/N=C(\C#N)c1ccccc1 | % | 8.65 |
| CC12CCCCC1=C(F)C(F)(F)S2 (stereo not drawn) | % | 0.15 |
| CN=C(NC#N)NCCSCc1nc[nH]c1C | % | 20.3 |
| COC(=O)CCc1c[nH]c2ccc(N)cc12 | % | -12.8 |
| Cc1cccc2nc(-c3ccccc3)ccc12 | % | -3.5 |
| O=C(O)C(Cc1cccs1)C(=O)OCCc1ccccc1 (stereo not drawn) | % | -4.95 |
| Cc1ccc(S(=O)(=O)SC(SCC(=O)c2ccc(Br)cc2)C(=O)c2ccc(Br)cc2)cc1 (stereo not drawn) | % | 26.6 |
| CC(=O)[O-].O=S(=O)(Nc1ncccn1)c1ccc(N=Cc2ccccc2O)cc1.O=S(=O)(Nc1ncccn1)c1ccc(N=Cc2ccccc2O)cc1.[Cu+2] | % | -7.4 |
| CNS(=O)(=O)c1ccccc1C(=N)c1ccccc1 | % | -0.3 |
| CCCC1OCC(CC)([N+](=O)[O-])CO1 (stereo not drawn) | % | 19.6 |
| Cc1cc(C)c(/C=C/c2c(C)cc(C)cc2C)c(C)c1 | % | 9.25 |
| COc1cc2c(cc1OC)C1CC(O)(c3nccc4cc(OC)c(OC)cc34)CCN1CC2 (stereo not drawn) | % | 21.1 |
| CCCCCCO/N=C\c1c2c(O)c3c(O)c(C)c4c(c3c1O)C(=O)C(C)(O/C=C\C(OC)C(C)C(OC(C)=O)C(C)C(O)C(C)C(O)C(C)/C=C\C=C(\C)C(=O)N2)O4 (stereo not drawn) | % | 25.2 |
| CCOC(CNCc1ccncc1)OCC | % | -19.8 |
| NC(=O)/C=C1\NC(=O)CS1 | % | 0.05 |
| O=c1[nH]c(=O)c2ncn(-c3ccc(Cl)cc3)c2[nH]1 | % | -7.35 |
| CCCCCCCCCCCCCCCCCCCOc1ccc(OCCCCCCCC)cc1 | % | 40.8 |
| CCC/C(=N/NC(=O)C(N)=O)C(CC)C(=O)CCC(=O)N(Cc1ccccc1)Cc1ccccc1 (stereo not drawn) | % | -17.6 |
